Just for reference, patent US8592181B2 is where these values come from.

Some substances, each annotated with its measured Multiples of increased sweetness to minor-type brazzein.
- System: human sense of taste
- assay: Sweetness measured by human sense of taste (20 trained subjects, minimum concentration at which sweetness is first sensed)
- Format: in vivo
- experimental-conditions: primary brazzein variants, relative to minor-type brazzein
- Experimental: Since the recombinant brazzein according to the present invention is not a sucrose-based compound having a cyclic ring, the sweetness of the recombinant brazzein was not measured using a saccharometer. Therefore, the activity of the recombinant brazzein was measured using the human sense of taste. […] That is, a concentration of each brazzein variant in which the subjects could sense sweetness for the first time was measured. […]
No unit in the answer, only the number.

substance: R42D: primary brazzein variant: Arg at position 42 of minor-type brazzein substituted with Asp (DKCKKVYENYPVSKCQLANQCNYDCKLRKHARSGECFYDEKDNLQCICDYCEY; Brazzein(R42D)) [Brazzein R42D]
recorded-value: 0.05

API: the following record is the query input.
stdin: Supply reported Multiples of increased sweetness to minor-type brazzein belonging to this substance: E35K: primary brazzein variant: Glu at position 35 of minor-type brazzein substituted with Lys (DKCKKVYENYPVSKCQLANQCNYDCKLRKHARSGKCFYDEKRNLQCICDYCEY; Brazzein(E35K)) [Brazzein E35K]
stdout: 0.08

* * *

- Tested on: human sense of taste
- assay: Sweetness measured by human sense of taste (20 trained subjects, minimum concentration at which sweetness is first sensed)
- Assay type: in vivo
- experimental-conditions: primary brazzein variants, relative to minor-type brazzein
observed-property: Multiples of increased sweetness to minor-type brazzein

substance: R32K: primary brazzein variant: Arg at position 32 of minor-type brazzein substituted with Lys (DKCKKVYENYPVSKCQLANQCNYDCKLRKHAKSGECFYDEKRNLQCICDYCEY; Brazzein(R32K)) [Brazzein R32K]
recorded-value: 0.16

stdin: Note Multiples of increased sweetness to minor-type brazzein for the substance shown: E35A: primary brazzein variant: Glu at position 35 of minor-type brazzein substituted with Ala (DKCKKVYENYPVSKCQLANQCNYDCKLRKHARSGACFYDEKRNLQCICDYCEY; Brazzein(E35A)) [Brazzein E35A]
stdout: 0.05

* * *

Form field: Multiples of increased sweetness to minor-type brazzein (one value per entry).
- System: human sense of taste
- assay: Sweetness measured by human sense of taste (20 trained subjects, minimum concentration at which sweetness is first sensed)
- Type: in vivo
- experimental-conditions: brazzein multi-variants, relative to minor-type brazzein
- Protocol: Since the recombinant brazzein according to the present invention is not a sucrose-based compound having a cyclic ring, the sweetness of the recombinant brazzein was not measured using a saccharometer. Therefore, the activity of the recombinant brazzein was measured using the human sense of taste. […] That is, a concentration of each brazzein variant in which the subjects could sense sweetness for the first time was measured. […]
The response must contain the number and no unit.

Previously resolved entries follow.
substance: H30R_E40R: secondary brazzein variant of minor-type brazzein with substitutions H30R and E40R (DKCKKVYENYPVSKCQLANQCNYDCKLRKRAKSGECFYDRKRNLQCICDYCEY; Brazzein(H30R_E40R)) [Brazzein H30R_E40R]
recorded-value: 5

substance: E35D_E40D: secondary brazzein variant of minor-type brazzein with substitutions E35D and E40D (DKCKKVYENYPVSKCQLANQCNYDCKLRKHAKSGDCFYDDKRNLQCICDYCEY; Brazzein(E35D_E40D)) [Brazzein E35D_E40D]
recorded-value: 5

substance: H30R_E40D: secondary brazzein variant of minor-type brazzein with substitutions H30R and E40D (DKCKKVYENYPVSKCQLANQCNYDCKLRKRAKSGECFYDDKRNLQCICDYCEY; Brazzein(H30R_E40D)) [Brazzein H30R_E40D]
recorded-value: 4

stdin: Quote Multiples of increased sweetness to minor-type brazzein reported for E35D_E40K: secondary brazzein variant of minor-type brazzein with substitutions E35D and E40K (DKCKKVYENYPVSKCQLANQCNYDCKLRKHAKSGDCFYDKKRNLQCICDYCEY; Brazzein(E35D_E40K)) [Brazzein E35D_E40K] please.
stdout: 4

stdin: Output Multiples of increased sweetness to minor-type brazzein of H30R_E40K: secondary brazzein variant of minor-type brazzein with substitutions H30R and E40K (DKCKKVYENYPVSKCQLANQCNYDCKLRKRAKSGECFYDKKRNLQCICDYCEY; Brazzein(H30R_E40K)) [Brazzein H30R_E40K]
stdout: 5

stdin: Please supply the value of reported Multiples of increased sweetness to minor-type brazzein for the item H30R_E40A: secondary brazzein variant of minor-type brazzein with substitutions H30R and E40A (DKCKKVYENYPVSKCQLANQCNYDCKLRKRAKSGECFYDAKRNLQCICDYCEY; Brazzein(H30R_E40A)) [Brazzein H30R_E40A]
stdout: 4

stdin: Return Multiples of increased sweetness to minor-type brazzein for the following substance: E35D_E40R: secondary brazzein variant of minor-type brazzein with substitutions E35D and E40R (DKCKKVYENYPVSKCQLANQCNYDCKLRKHAKSGDCFYDRKRNLQCICDYCEY; Brazzein(E35D_E40R)) [Brazzein E35D_E40R]
stdout: 6

stdin: Please look at this substance and report its Multiples of increased sweetness to minor-type brazzein: E35D_E40A: secondary brazzein variant of minor-type brazzein with substitutions E35D and E40A (DKCKKVYENYPVSKCQLANQCNYDCKLRKHAKSGDCFYDAKRNLQCICDYCEY; Brazzein(E35D_E40A)) [Brazzein E35D_E40A]
stdout: 5

* * *

- Test system: human sense of taste
- assay: Sweetness measured by human sense of taste (20 trained subjects, minimum concentration at which sweetness is first sensed)
- Assay type: in vivo
- experimental-conditions: primary brazzein variants, relative to minor-type brazzein
Where Multiples of increased sweetness to minor-type brazzein equals or exceeds 0.08, the correct label is Met; where it does not, the label is Not met.

stdin: Could you verify whether the entry R32E: primary brazzein variant: Arg at position 32 of minor-type brazzein substituted with Glu (DKCKKVYENYPVSKCQLANQCNYDCKLRKHAESGECFYDEKRNLQCICDYCEY; Brazzein(R32E)) [Brazzein R32E] shows Multiples of increased sweetness to minor-type brazzein of no less than 0.08?
stdout: Not met

stdin: Given the entry H30R: primary brazzein variant: His at position 30 of minor-type brazzein substituted with Arg (DKCKKVYENYPVSKCQLANQCNYDCKLRKRARSGECFYDEKRNLQCICDYCEY; Brazzein(H30R)) [Brazzein H30R] , answer whether its Multiples of increased sweetness to minor-type brazzein meets or surpasses 0.08.
stdout: Met

stdin: Multiples of increased sweetness to minor-type brazzein >= 0.08 for K29E: primary brazzein variant: Lys at position 29 of minor-type brazzein substituted with Glu (DKCKKVYENYPVSKCQLANQCNYDCKLREHARSGECFYDEKRNLQCICDYCEY; Brazzein(K29E)) [Brazzein K29E] ?
stdout: Not met

stdin: Please indicate if the recorded Multiples of increased sweetness to minor-type brazzein for K29R: primary brazzein variant: Lys at position 29 of minor-type brazzein substituted with Arg (DKCKKVYENYPVSKCQLANQCNYDCKLRRHARSGECFYDEKRNLQCICDYCEY; Brazzein(K29R)) [Brazzein K29R] meets or exceeds 0.08.
stdout: Not met

stdin: Exam item: decide whether the reported Multiples of increased sweetness to minor-type brazzein for R32D: primary brazzein variant: Arg at position 32 of minor-type brazzein substituted with Asp (DKCKKVYENYPVSKCQLANQCNYDCKLRKHADSGECFYDEKRNLQCICDYCEY; Brazzein(R32D)) [Brazzein R32D] is at least 0.08.
stdout: Not met

stdin: Is Multiples of increased sweetness to minor-type brazzein for H30K: primary brazzein variant: His at position 30 of minor-type brazzein substituted with Lys (DKCKKVYENYPVSKCQLANQCNYDCKLRKKARSGECFYDEKRNLQCICDYCEY; Brazzein(H30K)) [Brazzein H30K] at or above 0.08?
stdout: Met

stdin: Is the recorded value of Multiples of increased sweetness to minor-type brazzein equal to or greater than 0.08 for this substance? H30E: primary brazzein variant: His at position 30 of minor-type brazzein substituted with Glu (DKCKKVYENYPVSKCQLANQCNYDCKLRKEARSGECFYDEKRNLQCICDYCEY; Brazzein(H30E)) [Brazzein H30E]
stdout: Met

stdin: Is Multiples of increased sweetness to minor-type brazzein for R42K: primary brazzein variant: Arg at position 42 of minor-type brazzein substituted with Lys (DKCKKVYENYPVSKCQLANQCNYDCKLRKHARSGECFYDEKKNLQCICDYCEY; Brazzein(R42K)) [Brazzein R42K] at or above 0.08?
stdout: Met

stdin: Determine whether measured Multiples of increased sweetness to minor-type brazzein meets or exceeds 0.08 for E40K: primary brazzein variant: Glu at position 40 of minor-type brazzein substituted with Lys (DKCKKVYENYPVSKCQLANQCNYDCKLRKHARSGECFYDKKRNLQCICDYCEY; Brazzein(E40K)) [Brazzein E40K]
stdout: Met

stdin: Could you please find out whether K5R: primary brazzein variant: Lys at position 5 of minor-type brazzein substituted with Arg (DKCKRVYENYPVSKCQLANQCNYDCKLRKHARSGECFYDEKRNLQCICDYCEY; Brazzein(K5R)) [Brazzein K5R] has Multiples of increased sweetness to minor-type brazzein that meets 0.08 or exceeds it?
stdout: Not met

stdin: Decide: is the reported value of Multiples of increased sweetness to minor-type brazzein for K5H: primary brazzein variant: Lys at position 5 of minor-type brazzein substituted with His (DKCKHVYENYPVSKCQLANQCNYDCKLRKHARSGECFYDEKRNLQCICDYCEY; Brazzein(K5H)) [Brazzein K5H] equal to or greater than 0.08?
stdout: Not met

stdin: Answer whether Multiples of increased sweetness to minor-type brazzein of R32H: primary brazzein variant: Arg at position 32 of minor-type brazzein substituted with His (DKCKKVYENYPVSKCQLANQCNYDCKLRKHAHSGECFYDEKRNLQCICDYCEY; Brazzein(R32H)) [Brazzein R32H] is greater than or equal to 0.08.
stdout: Met

stdin: API: above_or_equal(metric=Multiples of increased sweetness to minor-type brazzein, cutoff=0.08) for item K29A: primary brazzein variant: Lys at position 29 of minor-type brazzein substituted with Ala (DKCKKVYENYPVSKCQLANQCNYDCKLRAHARSGECFYDEKRNLQCICDYCEY; Brazzein(K29A)) [Brazzein K29A]
stdout: Not met
